These data points were gathered from paper PMC6156755.

ASSAY METHOD TEXT: Human plasma protein binding (ultracentrifugation or rapid equilibrium dialysis)
Assay type: in vitro ADME
STATED CONDITIONS: pH 7.4; neat human plasma, 37°C, concentration comparable to Caco-2 assay; read-out: fu (fraction unbound in plasma)
READOUT NAME: fraction unbound

Solved entries (count: 3):
CCN(CC)Cc1cc(Nc2ccnc3cc(Cl)ccc23)ccc1O; 0.12
COCCc1ccc(OCC(O)CNC(C)C)cc1 (centres unmarked); 0.7
OC[C@@H](O)[C@@H](O)[C@H](O)[C@H](O)CO [^14C-Mannitol, D-[1-^14C]-mannitol]; 0.83

A. CNC(=C[N+](=O)[O-])NCCSCc1ccc(CN(C)C)o1
B. COC(=O)c1ccccc1-c1c2ccc(=N)cc-2oc2cc(N)ccc12
Asked: Of A and B , whose reported fraction unbound is the larger number? In your reply, give the label of the chosen option.
Given back: A
(A: 0.92, B: 0.35)
